Recorded values, source the array DNA melting data of Ke et al. (doi:10.1101/2024.01.08.574731).

method: melting temperature; fluorescence melt of hairpins on a sequencing array, two-state fit, raised by 9.35 °C to match UV melts
applied conditions: sodium 0.088 M
Record form. Attribute: Tm. Fill in for each entry.
Output spec: scalar in °C, unitless text.

Report Tm for GACTCCCGAAAGGGCGTC (((.(((....))).))) please.
53.5

Another sequence to look at: GCCCTGCGAAAGCAAGGC (((.(((....))).)))
55.7

Further, for GCCACGCGAAAGCGGTGC ((..(((....)))..)) ?
50.1

Here is the next sequence: GGAAATGCGAAAGCATCC (((..(((....))))))
37.1

Same again, this time with GTGCAACCGAAAGGTCAC (((..(((....))))))
40.1

Next entry: GAACTGGGAAACCAGTCC (.(((((....))))).)
37.3

// repeat for GGACTGCGAAAGCAATCC (((.(((....))).))) and report
47.8

Query GGTCAAGCGAAAGCTACC (((..(((....)))))) next
34.8

Subsequent entry: GCCTCGACGAAAGTCGGC (((..(((....))))))
52.1

Now the same for GAAGCCGGAAACGGTTTC (((.(((....))).)))
49.9

Record: GTTGTCGGAAACGATAAC (((.(((....))).)))
47.8

Same read-out for GCTACGCGAAAGCTTTGC ((.(.((....)).).)) ?
36.7

Input GCGTTATTACGC ((((....))))
53.9

Same question, GCTAGGTCGAAAGACAGC (((..(((....)))))) this time
39.6

// same read-out, input: GAATAGGGAAACCTATCC (.(((((....))))).)
26.4

Would you kindly repeat that for GTCGTTCCGAAAGGAGAC (((..(((....)))))) ?
35.1

GATCTCGGAAACGGGATC ((((.((....)).)))) , same question.
51.3

* * *

Assignment: determine reported Tm for the given sequences.
method: melting temperature; fluorescence melt of hairpins on a sequencing array, two-state fit, raised by 9.35 °C to match UV melts
applied conditions: sodium 0.088 M
Expressed in °C, but write only the number.

Can you share its Tm? I mean this sequence: GCGACCGGAAACGGCCGC (((.(((....))).)))
65.1

Thanks! And AGGTGGAAACACCT (((((....))))) ?
52.6

Then what about the sequence GACCCCGGAAACGGAGTC (((.(((....))).))) ?
47.2

Try this sequence next: GTTTGCGGAAACGTAAAC ((((.((....)).))))
48.6

Record: GTAGTCGGAAACGACCAC ((.((((....)))).))
37.4

Now this one: GCCAGGGAAACCTGGC ((((((....))))))
69.2

Do the same for GGTACGGGAAACCACACC (((..((....))..))) please
33

Cool, now GATCGGTGCCCCGATC ((((((....))))))
57

How about this sequence: GGTTACCGAAAGGTACC (((.(((....))))))
51

Could you do the same for GTGGAGGGAAACCCCCAC ((((.((....)).)))) , please?
48.8

Repeat with GTCATCGGAAACGGTGAC ((((.((....)).))))
55

# iterate: GATCTCATAGAGATC ((((((...))))))
55.2

Record: GAGTGGGGAAACCCACCC (.(((((....))))).)
42.7

Another sequence to look at: GCGAGACGTCGC ((((....))))
52.9

Param item: GAAAGCGAAAGCTGTTC ((((((....))).)))
34.1

Also check GATCGCGGGTGCGATC ((((((....))))))
68.4

What do we get for GCGGGTTCCCGC ((((....)))) ?
67.3

What do you get for GGATACGAAAGTACTCC ((((((....))).))) ?
37.9

Then GGATGCGGAAACGCATTC (.(((((....))))).) ?
54.5

And for GCCTAGCGAAAGCAACGC ((.(.((....)).).)) ?
23.8

Param item: GATCTCGGCGGAGATC ((((((....))))))
55.4

Param item: GATCGTGTAGACGATC ((((((....))))))
59.6

Further, for GTGGACGAAAGTCAGCAC ((((((....)))..))) ?
40.3

Also, GTTGGCCGAAAGGCAAAC (((.(((....))).))) please.
56.8

Try this sequence too: GACACGGCGAAAGCCGTC (((..(((....))))))
32.9

Repeat with GTTCACGGAAACGTGAGC (.(((((....))))).)
52.1

What about GACCGCGAAAGCGGCGTC ((((((....)))..))) ?
51.3

// next record GTAAGCGGAAACACTTAC (((((.(....).)))))
35.6

Another sequence: GTTGCAGGAAACTACAAC ((((.((....)).))))
37

Repeat with GTCGCCGGAAACGGCAAC ((.((((....)))).))
47.1

GCATAGCGAAAGCTTCGC ((..(((....)))..)) , same question.
34.6

What do you get for GATACCGAAAGGTCAATC ((((((....)))..))) ?
21.7

Follow-up item: GACATAGGAAACTATGTC (((((((....)))))))
53.5

Proceed to GGCATTGGAAACGATGTC (.(((.(....).))).)
35.1

Repeat for the following sequence: GTTATCACGAAAGTGAAC (((..(((....))))))
28.5

Please do the same for GCTTGTGGAAACGCAAGC (((((.(....).))))) as well.
55.6

Try this sequence too: CGGCGCCGGAAACGGCCG (((..(((....))))))
54.8

Same question for GAGCAACGAAAGTTCTC (((.(((....)))))) please.
35.6

Thanks! And GGATGCGAAAGCAGTTCC ((((((....)))..))) ?
36

Now consider GGCCTAGCGAAAGCTGCC (((..(((....)))))) .
47.1

Next up: GCTTTGGGAAACCGAAGC ((((.((....)).))))
52.5

// query: GTGGACGAAAGTCTCAC ((((((....))).)))
46.6

Next up: GTATGGGCGAAAGCCTAC (((..(((....))))))
36.9

Next: GTTCGCGAAAGCGTGAAC ((((((....)))..)))
40.5

* * *

method: melting temperature; fluorescence melt of hairpins on a sequencing array, two-state fit, raised by 9.35 °C to match UV melts
applied conditions: sodium 0.088 M
Please go through the items and note down their Tm.
Report as a plain number; the unit °C is understood.

Which Tm reading was recorded for the sequence GCGATACCTCGC ((((....)))) ?
51.4

Another: GCGAACGAAAGTTACGC ((((((....))).)))
51.5

Next entry: GGTCGCACGAAAGTGACC (((..(((....))))))
49.6

* * *

method: melting temperature; fluorescence melt of hairpins on a sequencing array, two-state fit, raised by 9.35 °C to match UV melts
applied conditions: sodium 0.088 M
Would you mind telling me the reported Tm of each entry?
# number only, unit °C dropped from output

Fill blank: measured Tm of the sequence CGCGTCGGAAACGATGCG (((.(((....))).))) is ____.
62.4

Also GCCAATGGAAACATTAGC ((.((((....)))).)) ?
32.1

Now consider GCGTAACGAAAGTTTCGC (((.(((....))).))) and answer again.
57

Again, but for GTGGGGGGAAACCTCCAC ((((.((....)).))))
54.5

Now consider GGAATAGCGAAAGCTTCC (((..(((....)))))) .
39.2

What about GGCGGCGAAAGCCTGGCC ((((((....)))..))) ?
61.8

Then this sequence: GCCGCGCGAAAGCCGGGC (((..((....))..)))
68.2

Similarly, GCACGTGGAAACACGCGC ((.((((....)))).)) ?
57.5

Cool, now GATCGGTATCCGATC ((((((...))))))
57.4

Try this sequence too: GTTAGAGGAAACTCTAAC (((((((....)))))))
51.6

Okay, and GGCCATCCGAAAGGAGCC (((..(((....)))))) ?
42.8

* * *

method: folding enthalpy; higher = less favourable; fluorescence melt of hairpins on a sequencing array, two-state fit
applied conditions: sodium 0.088 M
Criterion: folding enthalpy meeting or surpassing -30 kcal/mol. Met: Criterion met. Not met: Criterion not met.

# bool: folding enthalpy of GACGAACGAAAGTTAGTC (((.(((....))).))) >= -30 kcal/mol
Criterion not met

How about this sequence: GCCACCGAAAGGTCAGGC ((((((....)))..)))
Criterion met

Also need GCGCCGGCGAAAGCCCGC (((..(((....)))))) , thanks.
Criterion met

Cool, now GAGTATCCGAAAGGACTC (((..(((....))))))
Criterion met

Input GCGACCGGAAACGGCCGC (((.(((....))).)))
Criterion met
